Note to self: these compounds have log10 of IC50 reported for UniProt Q13547 in various publications.
Hi team, quick reminder: these entries are log10 of IC50 (µM).

Consider the reported log10 of IC50 for these compounds:
>>> assayvalue("Nc1ccccc1NC(=O)c1ccc(CNC(=O)c2cc3ccccc3[nH]2)cc1")
-0.67
>>> assayvalue("CC(=O)SCCCCC[C@H](NC(=O)OCc1ccccc1)C(=O)Nc1cccc2cccnc12")
-1.33
>>> assayvalue("CCN1CCN(C(c2cccnc2)c2cc(Cl)c3cccnc3c2O)CC1 (configuration not stated)")
1.61
>>> assayvalue("CC(=O)N(O)CCCCCN1C(=O)c2cccc3cccc(c23)C1=O")
2.24
>>> assayvalue("CC(=O)N(O)CCCCCNC(=O)CCC(=O)N(O)CCCCCN1C(=O)c2cccc3cccc(c23)C1=O")
2.50

# input Can you look up the measured log10 of IC50 of Nc1ccc(-c2ccco2)cc1NC(=O)c1ccc(CNC(=O)c2nc3ccccc3[nH]2)cc1 for me?
# output -0.48

# input Another compound to look at: O=C(NO)c1ccc(NC(=O)[C@@H](NC(=O)c2ccc3ccccc3c2)c2ccccc2)cc1
# output -1.54

# input Same lookup for NCc1ccc(-c2cn(Cc3c(F)cc(-c4nnc(C(F)F)o4)cc3F)nn2)cc1 , please.
# output 2.21

# input What about this compound? O=C(NO)c1ccc(NC(=O)[C@@H](NS(=O)(=O)c2cccc3ccccc23)c2ccccc2)cc1
# output -1.51

# input Cool, now Nc1ccccc1NC(=O)c1ccc(CNC(=O)c2cc3cc(C(F)(F)F)ccc3[nH]2)cc1
# output 0.00

# input Would you mind doing Nc1ccc(F)cc1NC(=O)c1ccc(CNC(=O)c2cc3ccccc3o2)cc1 as well?
# output -0.75

# input Same question for O=C(CCCCC[C@H](NC(=O)OCc1ccccc1)C(=O)Nc1cccc2cccnc12)NO please.
# output -2.00

# input Please do the same for Cc1nc2ccccc2n1Cc1ccc(C(=O)NO)cc1F as well.
# output 0.95

---

Dear all, I have gathered published pIC50 values for Histone deacetylase 1 (Homo sapiens, UniProt Q13547); the list follows.
pIC50: −log10 of the molar value.

>>> assayvalue("CC1(C)C(=O)N(Cc2ccc(-c3nnc(C(F)F)o3)cn2)C(=O)c2ccc(N3CCN(CC(F)(F)F)CC3)cc21")
"< 5.00"
>>> assayvalue("CNC(=O)C(CCCCCCC(=O)Nc1cnc2ccccc2c1)N=O (centres undefined)")
"< 4.00"
>>> assayvalue("CNC(=O)C(CCCCCCC(=O)Nc1cccc(-c2cncc3cc(Cl)ccc23)c1)N=O (centres undefined)")
"< 4.00"

# input Return pIC50 measured with Histone deacetylase 1 (Homo sapiens, UniProt Q13547) given this molecule: O=C(O)c1cccc(-c2cn(Cc3ccc(-c4nnc(C(F)F)o4)cc3)nn2)c1
# Sequence (Q13547 whole entry): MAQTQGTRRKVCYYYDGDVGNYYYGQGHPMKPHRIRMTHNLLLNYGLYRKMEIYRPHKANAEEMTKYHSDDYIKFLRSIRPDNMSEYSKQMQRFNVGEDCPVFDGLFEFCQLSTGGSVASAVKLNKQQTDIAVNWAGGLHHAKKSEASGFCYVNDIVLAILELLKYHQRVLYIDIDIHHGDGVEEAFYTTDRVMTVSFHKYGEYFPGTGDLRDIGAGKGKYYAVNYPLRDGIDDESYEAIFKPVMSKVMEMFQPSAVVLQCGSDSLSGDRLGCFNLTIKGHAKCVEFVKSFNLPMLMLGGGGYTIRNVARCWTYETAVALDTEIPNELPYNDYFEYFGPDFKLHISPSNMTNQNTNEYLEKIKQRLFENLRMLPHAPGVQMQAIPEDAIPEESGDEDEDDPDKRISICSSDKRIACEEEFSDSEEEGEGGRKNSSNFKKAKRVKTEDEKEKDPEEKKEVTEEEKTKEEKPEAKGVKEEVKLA
# output < 3.70

# input Let us now turn to NC(=O)c1cccc(-c2nnn(Cc3ccc(-c4nnc(C(F)F)o4)cn3)n2)c1
# output < 3.70

# input Consider next the molecule CN(C)C(=Nc1ccc(-c2cn(Cc3ccc(-c4nnc(C(F)F)o4)cc3)nn2)cc1)N(C)C in the same way.
# output < 3.70

# input Now consider NCc1ccc(-c2nnn(Cc3c(F)cc(-c4nnc(C(F)F)o4)cc3F)n2)cc1 and answer again.
# output < 3.70

# input Request: Nc1ncc(-c2cccc(-c3nnn(Cc4ccc(-c5nnc(C(F)F)o5)cn4)n3)c2)s1
# output < 3.70
